test system: HIPK3; settings: concentration: 1 μM, replicates: in singlicate; n = 1;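 further: KINOMEscan kinase panel screen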
Label YES when %Inh >= 20%; otherwise NO.

1. CS(=O)(=O)CCNCc1ccc(-c2ccc3ncnc(Nc4ccc(OCc5ccccc5)c(Cl)c4)c3c2)o1.Cl    NO
2. COC(=O)c1c(-c2ccccc2)c2cc(Cl)ccc2c(=O)n1Cc1ccc(S(C)(=O)=O)cc1    NO
3. FC(F)(F)c1ccc(-c2cc(-c3c[nH]nc3-c3ccccn3)ccn2)cc1    YES
4. CNc1nccc(-c2c(-c3ccc(F)cc3)ncn2C2CCN(C)CC2)n1    NO
5. O=c1cc(N2CCOCC2)nc2n(Cc3cccc(Cl)c3)ccn12    NO
6. CCc1nc(-c2cccc(N(C)S(=O)(=O)c3ccccc3)c2)c(-c2ccnc(Nc3ccc(N4CCN(C(C)=O)CC4)nc3)n2)s1    NO
7. COC(=O)c1cccc(NC(=O)NCCNc2ccnc(Nc3ccc(F)cc3)n2)c1    NO
8. CCC(CC)(CC)n1cnc2c(N)ncnc21    NO
9. CC(C)N1CCC(n2cnc(-c3ccc(F)cc3)c2-c2ccnc(N)n2)CC1    NO
10. Fc1ccc(Nc2nccc(-c3c(-c4ccc(Cl)cc4)nn4ncccc34)n2)cc1F    YES
11. COc1cc2ncnc(Nc3ccc(OCc4ccccc4Br)c(Cl)c3)c2cc1OC.Cl    NO
12. c1ccc(-c2ccc3c(-c4ccnc(Nc5ccc6c(c5)OCCO6)n4)cnn3n2)cc1    NO
13. Nc1nccc2scc(-c3ccc4c(c3)CCN4C(=O)Cc3cc(F)ccc3F)c12    NO

====

%Inh values, listed per item
tested on: EPHA8; settings: concentration: 1 μM, replicates: in singlicate; n = 1
QUANTITY_MEASURED: %Inh (%)

1. CN1CCC(n2cnc(-c3ccc(F)cc3)c2-c2ccnc(NC3CCNCC3)n2)CC1    0
2. COc1ccc(NC(=O)c2ccc(-c3cc(-c4nnc(C)o4)ccc3C)cc2)cc1    6
3. CCC(CC)(CC)n1cnc2c(N)ncnc21    23
4. FC(F)(F)c1ccc(-c2cc(-c3c[nH]nc3-c3ccccn3)ccn2)cc1    9
5. CCn1c(-c2ccncc2)nc2cnccc21    14
6. Cn1ccc2ncnc(Oc3ccc(NC(=O)Nc4cccnc4)c(Cl)c3)c21    10
7. Cc1ccc(NC(=O)c2cccc(C#N)c2)cc1-c1ccc(C(=O)Nc2ccncc2)cc1    46
8. O=c1cc(N2CCOCC2)nc2n(Cc3cccc(Cl)c3)ccn12    17
9. Cl.c1ccc(Cn2ncc3cc(Nc4ncnc5ccccc45)ccc32)cc1    17
10. CCc1nc(-c2cccc(N(C)S(=O)(=O)c3ccccc3)c2)c(-c2ccnc(Nc3ccc(N4CCN(C(C)=O)CC4)nc3)n2)s1    25
11. CNc1nccc(-c2c(-c3ccc(F)cc3)ncn2CCCN2CCOCC2)n1    25
12. CSc1nn2c(=O)cc(N3CCOCC3)nc2n1Cc1cccc(Cl)c1Cl    15
13. COc1cc2c(Nc3cccc(NC(=O)c4ccccc4)c3)ncnc2cc1OCCCN1CCOCC1    24
14. CCCc1ccc(S(=O)(=O)NC2CCN(c3ccnc(Nc4ccc(OC)cc4)n3)C2)cc1 (stereo not shown)    7
15. OCCOCCn1ccc2ncnc(Nc3ccc(Oc4cccc(Cl)c4)c(Cl)c3)c21    0
16. CSc1ccc(NC2=C(c3ccccc3Cl)C(=O)NC2=O)cc1    14
